# assayMethodText: in vivo
# Set-up: species or system Swiss albino mice
# conditionLabel: Swiss albino, mouse, iv, 10 pmol peptide, total radioactivity, %ID/g tissue, Kidneys

compound: CSCC[C@H](NC(=O)[C@H](Cc1c[nH]c2ccccc12)NC(=O)CNC(=O)[C@H](Cc1ccc(O)cc1)NC(=O)[C@H](C)NC(=O)[C@@H](CCC(=O)O)NC(=O)[C@@H](CCC(=O)O)NC(=O)[C@@H](CCC(=O)O)NC(=O)[C@@H](CCC(=O)O)NC(=O)[C@@H](CCC(=O)O)NC(=O)[C@@H](CCC(=O)O)NC(=O)CN1CCN(CC(=O)O)CCN(CC(=O)O)CCN(CC(=O)O)CC1)C(=O)N[C@@H](CC(=O)O)C(=O)N[C@@H](Cc1ccccc1)C(N)=O [^111In-CP04, metal not drawn]
tissue uptake at 1 h [%ID/g]: 8.84

The origin of these recorded values is paper PMC4948680.
